# study.system: T1, MSUT2 ZF (ZC3H14 C-terminal CCCH zinc finger domain) (UniProt Q6PJT7 Q6PJT7:601-736)
# T1 sequence: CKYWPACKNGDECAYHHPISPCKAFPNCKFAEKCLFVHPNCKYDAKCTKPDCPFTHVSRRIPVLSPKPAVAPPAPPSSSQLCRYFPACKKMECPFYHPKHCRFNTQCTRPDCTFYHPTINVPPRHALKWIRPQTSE
# assay.protocol: FP; PBS, room temperature, 10 nM FAM-RNA; reported as affinity / binding constant
# cond: tags: GST (pGEX-6P1); label: 5' FAM
experimental.readout: Kd

binder | result
AAAAAAAAAAAAAAA (ssRNA) [FAM-poly(A)15] | 810 nM
